Let's look at some molecules and their measured pIC50.
- assayedSystem: LK35.2-hPD-L1 cells / PE-labeled PD-1-Ig (Homo sapiens, UniProt Q9NZQ7)
- Construct: expressed in transfected cells; host or cells: LK35.2 mouse B cell line
- Sequence (Q9NZQ7 19-290): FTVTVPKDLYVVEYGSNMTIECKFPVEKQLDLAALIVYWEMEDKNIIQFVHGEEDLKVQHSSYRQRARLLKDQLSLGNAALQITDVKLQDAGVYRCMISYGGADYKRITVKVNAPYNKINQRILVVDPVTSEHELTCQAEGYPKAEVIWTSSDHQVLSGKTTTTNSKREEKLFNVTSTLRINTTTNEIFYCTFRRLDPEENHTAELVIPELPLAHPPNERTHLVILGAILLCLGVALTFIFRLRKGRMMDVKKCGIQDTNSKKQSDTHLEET
- testMethodNotes: LK35.2-hPD-L1 cell binding high-content screening assay
- Assay type: cell-based
- conditionLabel: cell binding assay, cell line not given; cluster symbol; read-out: CBA IC50 cluster
pIC50: −log10 of the molar value. Positions of bridges follow the written chain, without caps; N, C: chain ends. Non-standard residues stand in square brackets, D forms with d. Residues, ends and D or L forms follow the SMILES beside them. ξ: configuration not given here. NMeNle = CCCC[C@H](NC)C(=O)O; NMeM = CN[C@@H](CCSC)C(=O)O; NMeA = CN[C@@H](C)C(=O)O; Dap = NC[C@H](N)C(=O)O; ξC = NC(CS)C(=O)O

Examples with their reported pIC50 follow.
• CCCC[C@H]1C(=O)N(C)[C@@H](CCCC)C(=O)N[C@@H](CCCNC(=N)N)C(=O)N[C@H](C(=O)NCC(N)=O)CSCC(=O)N[C@@H](Cc2ccc(O)cc2)C(=O)N(C)[C@@H](C)C(=O)N[C@@H](CC(N)=O)C(=O)N2CCC[C@H]2C(=O)N[C@@H](CN)C(=O)N[C@@H](CCC(N)=O)C(=O)N2CCC[C@H]2C(=O)N[C@@H](Cc2c[nH]c3ccccc23)C(=O)N[C@@H](CO)C(=O)N[C@@H](Cc2c[nH]c3ccccc23)C(=O)N1C [Example 6021] ({CH2CO}-Y[NMeA]NP[Dap]QPWSW[NMeNle][NMeNle]RCG-NH2; thioether N-14) = 8.33 to 9.80
• CCCC[C@H]1C(=O)N(C)[C@@H](CCCC)C(=O)N[C@@H](Cc2cccnc2)C(=O)N[C@H](C(=O)NCC(N)=O)CSCC(=O)N[C@@H](Cc2ccc(O)cc2)C(=O)N(C)[C@@H](C)C(=O)N[C@@H](CC(N)=O)C(=O)N2CCC[C@H]2C(=O)N[C@@H](Cc2cnc[nH]2)C(=O)N[C@@H](CC(C)C)C(=O)N2C[C@H](O)C[C@H]2C(=O)N[C@@H](Cc2c[nH]c3ccccc23)C(=O)N[C@@H](CO)C(=O)N[C@@H](Cc2c[nH]c3ccccc23)C(=O)N1C = 8.33 to 9.80

Query molecule follows.
Query: Fill in: pIC50 of CCCC[C@H]1C(=O)N(C)[C@@H](CCSC)C(=O)N[C@@H](CCCNC(=N)N)C(=O)NC(C(=O)NCC(N)=O)CSCC(=O)N[C@@H](Cc2ccc(O)cc2)C(=O)N(C)[C@@H](C)C(=O)N[C@@H](CC(N)=O)C(=O)N2CCC[C@H]2C(=O)N[C@@H](CN)C(=O)N[C@@H](CC(C)C)C(=O)N2CCC[C@H]2C(=O)N[C@@H](Cc2c[nH]c3ccccc23)C(=O)N[C@@H](CO)C(=O)N[C@@H](Cc2c[nH]c3ccccc23)C(=O)N1C (stereo partly drawn) [Example 9081] ({CH2CO}-Y[NMeA]NP[Dap]LPWSW[NMeNle][NMeM]R[ξC]G-NH2; thioether N-14) is ___
Reply: 8.33 to 9.80

###

- assayedSystem: Human PD-L1/PD-1 (Homo sapiens)
- Construct: made in house; host or cells: HEK293T
- Sequence (Q9NZQ7 with tags, fused parts or gaps): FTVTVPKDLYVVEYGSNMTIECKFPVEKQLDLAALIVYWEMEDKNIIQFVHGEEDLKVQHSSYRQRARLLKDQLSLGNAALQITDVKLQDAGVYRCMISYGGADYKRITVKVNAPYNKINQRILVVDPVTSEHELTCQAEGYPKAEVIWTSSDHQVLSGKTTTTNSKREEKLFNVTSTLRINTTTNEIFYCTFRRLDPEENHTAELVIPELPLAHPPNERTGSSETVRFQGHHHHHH
- testMethodNotes: HTRF PD-1-Ig/PD-L1-His binding assay (human PD-L1)
- conditionLabel: cluster symbol; read-out: HTRF IC50 cluster
pIC50: −log10 of the molar value. Positions of bridges follow the written chain, without caps; N, C: chain ends. Non-standard residues stand in square brackets, D forms with d. Residues, ends and D or L forms follow the SMILES beside them. Phe(4-CF3) = N[C@@H](Cc1ccc(C(F)(F)F)cc1)C(=O)O; Phe(3-Cl) = N[C@@H](Cc1cccc(Cl)c1)C(=O)O; Phe(4-Cl) = N[C@@H](Cc1ccc(Cl)cc1)C(=O)O; Phe(2-Cl) = N[C@@H](Cc1ccccc1Cl)C(=O)O; Bta = N[C@@H](Cc1csc2ccccc12)C(=O)O; Hyp = O=C(O)[C@@H]1C[C@@H](O)CN1; NMeF = CN[C@@H](Cc1ccccc1)C(=O)O; NMeNle = CCCC[C@H](NC)C(=O)O; NMeA = CN[C@@H](C)C(=O)O; Dab = NCC[C@H](N)C(=O)O; Sar = CNCC(=O)O
Let's look at some molecules and their measured pIC50.

Examples with their reported pIC50 follow.
* CCCC[C@H]1C(=O)N(C)CC(=O)N[C@@H](CC(=O)O)C(=O)N[C@@H](C(C)C)C(=O)N(C)[C@@H](Cc2ccccc2)C(=O)N[C@@H](Cc2ccc(O)cc2)C(=O)N(C)CC(=O)N[C@@H](Cc2c[nH]c3ccccc23)C(=O)N[C@@H](Cc2ccc(O)cc2)C(=O)N[C@@H](CC(C)C)C(=O)N[C@H](C(=O)NCC(N)=O)CSCC(=O)N[C@@H](Cc2ccccc2Cl)C(=O)N(C)[C@@H](Cc2ccccc2)C(=O)N1C [Example 3104] ({CH2CO}-[Phe(2-Cl)][NMeF][NMeNle][Sar]DV[NMeF]Y[Sar]WYLCG-NH2; thioether N-13) | < 7.52
* CCCC[C@H]1C(=O)N(C)CC(=O)N[C@@H](CC(=O)O)C(=O)N[C@@H](C(C)C)C(=O)N(C)[C@@H](Cc2ccccc2)C(=O)N[C@@H](Cc2ccc(O)cc2)C(=O)N(C)CC(=O)N[C@@H](Cc2ccc(Cl)cc2)C(=O)N[C@@H](Cc2ccc(O)cc2)C(=O)N[C@@H](CC(C)C)C(=O)N[C@H](C(=O)NCC(N)=O)CSCC(=O)N[C@@H](Cc2ccccc2)C(=O)N(C)[C@@H](Cc2ccccc2)C(=O)N1C [Example 3546] ({CH2CO}-F[NMeF][NMeNle][Sar]DV[NMeF]Y[Sar][Phe(4-Cl)]YLCG-NH2; thioether N-13) | < 7.52
* CCCC[C@H]1C(=O)N(C)[C@@H](CCCC)C(=O)N[C@@H](CCCNC(=N)N)C(=O)N[C@H](C(=O)NCC(N)=O)CSCC(=O)N[C@@H](Cc2ccc(O)cc2)C(=O)N(C)[C@@H](C)C(=O)N[C@@H](CCN)C(=O)N2CCC[C@H]2C(=O)NCC(=O)N[C@@H](CCC(=O)O)C(=O)N2C[C@H](O)C[C@H]2C(=O)N[C@@H](Cc2c[nH]c3ccccc23)C(=O)N[C@@H](CO)C(=O)N[C@@H](Cc2c[nH]c3ccccc23)C(=O)N1C [Example 5129] ({CH2CO}-Y[NMeA][Dab]PGE[Hyp]WSW[NMeNle][NMeNle]RCG-NH2; thioether N-14) | 8.17 to 9.41

Query: Fill in: pIC50 of CCCC[C@H]1C(=O)N(C)[C@@H](CCCC)C(=O)NCC(=O)N[C@H](C(=O)NCC(N)=O)CSCC(=O)N[C@@H](Cc2ccc(O)cc2)C(=O)N(C)[C@@H](C)C(=O)N[C@@H](CC(N)=O)C(=O)N2CCC[C@H]2C(=O)N[C@@H](Cc2c[nH]cn2)C(=O)N[C@@H](CCC(N)=O)C(=O)N2C[C@H](O)C[C@H]2C(=O)N[C@@H](Cc2c[nH]c3ccccc23)C(=O)N[C@@H](CO)C(=O)N[C@@H](Cc2c[nH]c3ccccc23)C(=O)N1C [Example 5125] ({CH2CO}-Y[NMeA]NPHQ[Hyp]WSW[NMeNle][NMeNle]GCG-NH2; thioether N-14) is ___
Reply: 8.17 to 9.41

Query: Same question, CCCC[C@H]1C(=O)N(C)CC(=O)N[C@@H](CC(=O)O)C(=O)N[C@@H](C(C)C)C(=O)N(C)[C@@H](Cc2ccccc2)C(=O)N[C@@H](Cc2ccc(O)cc2)C(=O)N(C)CC(=O)N[C@@H](Cc2c[nH]c3ccccc23)C(=O)N[C@@H](Cc2ccc(C(F)(F)F)cc2)C(=O)N[C@@H](CC(C)C)C(=O)N[C@H](C(=O)NCC(N)=O)CSCC(=O)N[C@@H](Cc2ccccc2)C(=O)N(C)[C@@H](Cc2ccccc2)C(=O)N1C [Example 3138] ({CH2CO}-F[NMeF][NMeNle][Sar]DV[NMeF]Y[Sar]W[Phe(4-CF3)]LCG-NH2; thioether N-13) this time
Reply: < 7.52

Query: Same question, CCCC[C@H]1C(=O)N(C)CC(=O)N[C@@H](CC(=O)O)C(=O)N[C@@H](C(C)C)C(=O)N(C)[C@@H](Cc2ccccc2)C(=O)N[C@@H](Cc2ccc(O)cc2)C(=O)N(C)CC(=O)N[C@@H](Cc2csc3ccccc23)C(=O)N[C@@H](Cc2ccc(O)cc2)C(=O)N[C@@H](CC(C)C)C(=O)N[C@H](C(=O)NCC(N)=O)CSCC(=O)N[C@@H](Cc2cccc(Cl)c2)C(=O)N(C)[C@@H](Cc2ccccc2)C(=O)N1C [Example 3114] ({CH2CO}-[Phe(3-Cl)][NMeF][NMeNle][Sar]DV[NMeF]Y[Sar][Bta]YLCG-NH2; thioether N-13) this time
Reply: 7.52 to 8.17

These measurements were taken from patent US9850283B2.
